tested on: Aspergillus fumigatus; test: checkerboard drug interaction (FICI, MICc);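 also: simplified diagonal checkerboard screen pairing antifungals with FPPS inhibitors against Aspergillus fumigatus, with FICI calculated under the Loewe additivity model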; type: cell-based; details: A. fumigatus; ITR:INH combination; MIC of ITR in combination with the inhibitor
reported.endpoint: ITR MICc
Reply with the value as a number alone.

Guide cases for ITR MICc, answers given:
>>> observed("CCCCCCCCCCN1CCC[C@H]1C(=O)N[C@@H](CC(=O)OC)C(=O)OC")
0.063
>>> observed("CCCCCCCCCN1CCC[C@H]1C(=O)N[C@@H](CC(=O)OC)C(=O)OC")
0.125
>>> observed("CCCCCCCCCN1CCC[C@H]1C(=O)N[C@@H](CC(=O)O)C(=O)O")
0.063
>>> observed("CCCCCCCCCCn1cc[n+](CC(O)(P(=O)(O)O)P(=O)(O)O)c1 [10-ZOL, Decyl-zoledronate]")
0.063
>>> observed("CCCCCCCCCCCN1CCC[C@H]1C(=O)N[C@@H](CC(=O)O)C(=O)O")
0.063

Then there is this compound:
O=P(O)(O)C(O)(Cn1ccnc1)P(=O)(O)O [ZOL, zoledronate] has a reported ITR MICc of 0.063

###

tested on: Saccharomyces cerevisiae; assay: checkerboard drug interaction (FICI, MICc); type: cell-based; settings: Fractional Inhibitory Concentration Index, ketoconazole + inhibitor
Answer not fulfilled if FICI (KET:INH) is under 0.6, and fulfilled if it is 0.6 or more.

FICI (KET:INH) >= 0.6 for CCCCCCCCCCN1CCC[C@H]1C(=O)N[C@H](CC(=O)OC)C(=O)OC ?
fulfilled

FICI (KET:INH) >= 0.6 for CCCCCCCCCCCCN1CCC[C@H]1C(=O)N[C@H](CC(=O)OC)C(=O)OC ?
not fulfilled

FICI (KET:INH) >= 0.6 for CCCCCCCCCCCCN1CCC[C@H]1C(=O)N[C@H](CC(=O)O)C(=O)O ?
not fulfilled

FICI (KET:INH) >= 0.6 for CCCCCCCCCCCN1CCC[C@H]1C(=O)N[C@H](CC(=O)O)C(=O)O ?
not fulfilled

FICI (KET:INH) >= 0.6 for CCCCCCCCCN1CCC[C@H]1C(=O)N[C@H](CC(=O)OC)C(=O)OC ?
fulfilled

###

tested on: Trichophyton rubrum; test: checkerboard drug interaction (FICI, MICc); assay type: cell-based; conditions: T. rubrum; MIC of the inhibitor in combination with ketoconazole
reported.endpoint: INH MICc (KET:INH)
Reply with the value as a number alone.

Guide cases for INH MICc (KET:INH), answers given:
>>> observed("CCCCCCCCCN1CCC[C@H]1C(=O)N[C@H](CC(=O)O)C(=O)O [PDA9]")
64
>>> observed("CCCCCCCCCCCN1CCC[C@H]1C(=O)N[C@@H](CC(=O)OC)C(=O)OC [dmPLA11]")
32
>>> observed("CCCCCCCCCCCN1CCC[C@H]1C(=O)N[C@H](CC(=O)O)C(=O)O [PDA11]")
256
>>> observed("CCCCCCCCCN1CCC[C@H]1C(=O)N[C@H](CC(=O)OC)C(=O)OC [dmPDA9]")
32

O=P(O)(O)C(O)(Cn1ccnc1)P(=O)(O)O [ZOL, zoledronate] has a reported INH MICc (KET:INH) of 16

CCCCCCCCCCn1cc[n+](CC(O)(P(=O)(O)O)P(=O)(O)O)c1 [10-ZOL, Decyl-zoledronate] has a reported INH MICc (KET:INH) of 0.5

CCCCCCCCCCCCN1CCC[C@H]1C(=O)N[C@H](CC(=O)O)C(=O)O [PDA12] has a reported INH MICc (KET:INH) of 256

CCCCCCCCCN1CCC[C@H]1C(=O)N[C@@H](CC(=O)O)C(=O)O [PLA9] has a reported INH MICc (KET:INH) of 128

CCCCCCCCCCCN1CCC[C@H]1C(=O)N[C@@H](CC(=O)O)C(=O)O [PLA11] has a reported INH MICc (KET:INH) of 128

CCCCCCCCCCN1CCC[C@H]1C(=O)N[C@@H](CC(=O)OC)C(=O)OC [dmPLA10] has a reported INH MICc (KET:INH) of 8
